Target: T1, Trx-RhopH3-C (P. falciparum RhopH3 amino acids 620-897 with Trx and His tags) (Plasmodium falciparum, UniProt Q8I395 620-897)
T1 sequence: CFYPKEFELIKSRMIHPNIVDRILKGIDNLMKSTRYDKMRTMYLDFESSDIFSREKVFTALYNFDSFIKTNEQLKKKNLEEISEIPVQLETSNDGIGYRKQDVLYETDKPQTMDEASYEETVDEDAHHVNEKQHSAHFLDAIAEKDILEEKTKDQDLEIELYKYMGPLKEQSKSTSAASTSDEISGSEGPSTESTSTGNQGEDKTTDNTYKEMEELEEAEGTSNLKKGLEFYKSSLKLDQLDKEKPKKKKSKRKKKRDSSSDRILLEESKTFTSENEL
Assay: ELISA
assay_readout: Kd (nM)

GMPWLSATTVRSVTHANALTVMGKASTPGAAAQIQEVKEQRI (domain or fragment, UniProt P02730 720-761, looked up) [GST-5ABC (5ABC region of human erythrocyte band 3, amino acids 720-761, as GST fusion protein)]    183

These measurements were taken from paper PMC4198471.
